Test system: A549 human lung cancer cell line
Experiment: Sulforhodamine B
Format: cell-based
Conditions: A549, 48 h, read-out: Growth inhibition, IC50
Counter-ions that a name gives are not always drawn.
Assay metric: IC50 (µM)
Give bare numbers, in µM.

COc1cc(O)c(CC=C(C)C)c(O)c1C(=O)/C=C/c1ccc(O)cc1
25.5

Identify measured IC50 corresponding to COc1cccc2c1C(=O)c1c(O)c3c(c(O)c1C2=O)C[C@@](O)(C(=O)CO)C[C@@H]3O[C@H]1C[C@H](N)[C@H](O)[C@H](C)O1 [Doxorubicin, Doxorubicin hydrochloride, reference compound] 0.22

---

Test: Mitochondrial membrane potential assay
Type: cell-based, human
Conditions: human, A549 cells, Population of viable cells (P5 region, high Δψm), A549, 42 μM, untreated 91.42 ± 0.36%
Assay metric: viability at 72 h, 42 µM (%)
One number for each entry, in %.

Identify measured viability at 72 h, 42 µM corresponding to COc1cc(O)c(CC=C(C)C)c(O)c1C(=O)/C=C/c1ccc(O)cc1 2.88
